Ref: ChEMBL document CHEMBL1135516

System: Monoclonal antibody (mAb)
assay notes: Binding affinity against murine monoclonal antibody (mAb)-40-50

>  <compound>
C[C@H]1O[C@@H](O[C@H]2CC[C@@]3(C)[C@H](CC[C@@H]4[C@@H]3C[C@@H](O)[C@]3(C)[C@@H](C5=CC(=O)OC5)CC[C@]43O)C2)C[C@H](O)[C@@H]1O

>  <Relative Ki>
0.6

$$$$
>  <compound>
C[C@]12CC[C@H]3[C@@H](CC[C@]4(O)C[C@@H](O)CC[C@]34CO)[C@@]1(O)CC[C@@H]2C1=CC(=O)OC1

>  <Relative Ki>
4

$$$$
>  <compound>
C[C@H]1O[C@@H](O[C@H]2[C@@H](O)C[C@H](O[C@H]3[C@@H](O)C[C@@H](O[C@H]4CC[C@@]5(C)[C@H](CC[C@@H]6[C@@H]5C[C@@H](O)[C@]5(C)[C@@H](C7=CC(=O)OC7)CC[C@]65O)C4)O[C@@H]3C)O[C@@H]2C)C[C@H](O)[C@@H]1O

>  <Relative Ki>
280

$$$$
>  <compound>
C[C@]12C[C@@H](O)[C@H]3[C@@H](CC[C@]4(O)C[C@@H](O)C[C@@H](O)[C@]34CO)[C@@]1(O)CC[C@@H]2C1=CC(=O)OC1

>  <Relative Ki>
9

$$$$
>  <compound>
CC(=O)O[C@@H]1C[C@H]2[C@@H](CC[C@@H]3C[C@@H](O[C@H]4C[C@H](O)[C@H](O[C@H]5C[C@H](O)[C@H](O[C@H]6C[C@H](O)[C@H](O)[C@@H](C)O6)[C@@H](C)O5)[C@@H](C)O4)CC[C@@]32C)[C@@]2(O)CCC(C3=CC(=O)OC3)[C@@]12C (stereo not given in full)

>  <Relative Ki>
0.5

$$$$
